Reported inhibition is given for each of the following molecules.
- SYSTEM NAME: Voltage-dependent N-type calcium channel subunit alpha-1B (Homo sapiens)
- METHOD NOTES: disruptors of CaV2.2 binding to Mint1 – biochemical, HTRF (AID 2073)
- CONDITION LABEL: HTRF protein-protein interaction, Mint1-CaV2.2; at 20 µM; hits give high values
In all, about 290,000 compounds went through this assay and about 570 (0.2%) were called active. Inconclusive results (about 1%) are left out. The full list was thinned out, with actives kept by preference.
VALUE TYPE: inhibition (%)

                           structure_smiles  value_type  quantity_unit  assay_result
0  Oc1c(/C=C/C=C/C=Nc2ccccc2)sc(=S)n1Cc1ccccc1  inhibition              %          50.6
1                     Cc1ccsc1/C=N/NC(=O)CO  inhibition              %           7.8
2  CN1CCN(C(=O)CN(c2cc(C(F)(F)F)ccc2Cl)S(C)(=O)=O)CC1  inhibition              %         -10.8
3  COc1ccc(-c2nnc(SCC(=O)NC(=O)NCc3ccccc3)o2)cc1  inhibition              %          55.3
4      CCn1c(O)c(/C=C/C=C/C=Nc2ccccc2)sc1=S  inhibition              %           1.5
5  Cn1nc(C(F)(F)F)c(-c2ccc(Br)cc2)c1NC(=O)c1nccnc1C(=O)O  inhibition              %           0.4
